Molecular target: T1, crab-eating macaque CLDN-5 protein (crab-eating macaque, UniProt O00501 1-218 (human entry))
T1 construct: Expressed on cells by retrovirus; also called cCLDN-5; MDCKII/cCLDN-5
T1 chain: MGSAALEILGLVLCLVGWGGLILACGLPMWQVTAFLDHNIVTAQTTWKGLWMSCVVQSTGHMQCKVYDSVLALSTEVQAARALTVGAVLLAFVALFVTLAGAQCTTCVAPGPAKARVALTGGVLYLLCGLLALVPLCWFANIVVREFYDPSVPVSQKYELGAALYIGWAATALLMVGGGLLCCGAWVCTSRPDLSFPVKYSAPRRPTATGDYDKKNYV
Experiment: FACS on CLDN-5-expressing cells, antibody 5 µg/mL
MEASURE: binding result

* rat anti-CLDN-5 antibody R9 (antibody, rat IgG2b, V domains shown, Hybridoma monoclonal; also called antibody I) VH: QVTLKESGPGILQPSHTLSLTCSFSGFSLNTYGVGVNWIRQPSGKGLEWLASIWWHGKTYINPSLKNRLTVSKDPSNNQAFLEVTNVDPADTATYYCAHARAQLLDYWGQGVMVTVSS VL: DIVMTQTPSSQAVSAGEKVTMSCKSSQSLLYSGDQKNYLAWYQQKPGQSPKLLIYLTSTRESGVPDRFIGSGSGTDFTLTISSVQAEDLADYYCQQHYSYPLTFGSGTKLEI | binds
* rat anti-CLDN-5 antibody R3 (antibody, rat IgG2a, V domains shown, Hybridoma monoclonal; also called antibody G) VH: EVQLVESGGGLVQPGRSLKLSCAASGFTFSDYYMAWVRQAPKKGLEWVASISYEGRNTYYGDSVKGRFTISRDNAKSTLYLQMKSLRSEDTATYYCTRHPRRYFDYWGQGVMVTVSS VL: DIVMTQSPSSLAVSAGETVTMNCRSSQSLFSSGDQKKFLAWYQQKPGQSPKLLISLASTRESGVPDRFIGSGSGTDFTLTINNMQAEDLAIYYCQQHYDIPYTFGAGTKLEL | binds
